# protocol details: soluble on expression in E. coli; label from the status in PepcDB or PDB records
readout label: soluble on expression in E. coli

sequence content | readout label | measured result
MGSDKIHHHHHHMNLEDIFSILPEKIEREVKRISDYNNLQEIRIKVNKPLIIQIGKKEIISNYIATKEDLKKTFNVMSGYSIYSVEDELRQGYITIKGGHRVGICGDCVLEENKIKTIKNISSLNIRICKEVTGCSNSIMKKIVYGNTVLNTIIISPPNCGKTTLLRDITRNISYGINSIQFRGKKVCVIDERSEIGACLNGVNQMDIGIRTDILDNCPKSIGIMMAIRSMAPEVIICDEIGTYDDIKSILTAVNCGVKLITTIHGFGIEDLNSRDVFKDAIKNNVFERAIVLSGRSGVGTVEYIYDFYTKERERGL | soluble on expression in E. coli | not soluble
MSLESILDVLSVMYINAQLPREQRHRWRLLFSSELHGHSFSQLCGHITHRGPCVAVLEDHDKHVFGGFASCSWEVKPQFQGDNRCFLFSICPSMAVYTHTGYNDHYMYLNHGQQTIPNGLGMGGQHNYFGLWVDVDFGKGHSRAKPTCTTYNSPQLSAQENFQFDKMEVWAVGDPSEEQLAKGNKSILDADPEAQALLEISGHSRHSEGLREVPDDEGHHHHHH | soluble on expression in E. coli | not soluble
